Data provenance is patent US20100173362A1.

- experimental-target: recombinant human HGF (R&D Systems, Catalog No. 294-HGN-025) (human, UniProt P14210 32-728)
- Sequence (P14210 32-728 limits assumed): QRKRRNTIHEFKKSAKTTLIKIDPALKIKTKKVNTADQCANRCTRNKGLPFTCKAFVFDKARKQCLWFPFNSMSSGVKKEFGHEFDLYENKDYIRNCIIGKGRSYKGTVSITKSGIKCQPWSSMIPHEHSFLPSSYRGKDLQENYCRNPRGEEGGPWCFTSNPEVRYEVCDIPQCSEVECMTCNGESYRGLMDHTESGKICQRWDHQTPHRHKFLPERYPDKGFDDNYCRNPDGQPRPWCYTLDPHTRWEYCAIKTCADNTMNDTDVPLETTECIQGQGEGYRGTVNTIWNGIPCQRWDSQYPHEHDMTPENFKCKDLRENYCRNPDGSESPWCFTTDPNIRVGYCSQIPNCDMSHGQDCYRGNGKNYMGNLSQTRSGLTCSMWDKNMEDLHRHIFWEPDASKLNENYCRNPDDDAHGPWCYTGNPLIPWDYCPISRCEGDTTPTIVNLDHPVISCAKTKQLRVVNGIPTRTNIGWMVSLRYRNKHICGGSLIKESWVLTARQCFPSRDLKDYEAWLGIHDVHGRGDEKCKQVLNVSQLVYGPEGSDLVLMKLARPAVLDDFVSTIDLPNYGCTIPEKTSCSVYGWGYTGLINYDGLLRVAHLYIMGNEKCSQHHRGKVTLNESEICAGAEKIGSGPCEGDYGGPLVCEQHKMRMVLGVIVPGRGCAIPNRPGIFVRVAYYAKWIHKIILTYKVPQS
- protocol-summary: cell-based or functional assay
Can you tell me HGF-stimulated c-Met phosphorylation in PC-3 cells, Average of Two Trials for the items I'm about to list?
Give bare numbers, in nM.

Batch request: HGF-stimulated c-Met phosphorylation in PC-3 cells, Average of Two Trials for each of the following binders.
1. HE2B8-2 (antibody, human IgG1, kappa, V domains shown) VH: QVQLVQPGAEVVKPGTSVKLSCKASGYTFTTYWMHWVNQAPGQGLEWIGEINPTNGHTNYNEKFKGKATLTVDKSTSTAYMELSSLRSEDTAVYYCARNYVGSIFDYWGQGTLLTVSS VL: DIVMTQSPDSLAMSLGERVTLNCKASENVVSYVSWYQQKPGQSPKLLIYGASNRESGVPDRFSGSGSATDFTLTISSVQAEDVADYHCGQSYNYPYTFGQGTKLEIKR
2. HE2B8-1 (antibody, human IgG1, kappa, V domains shown) VH: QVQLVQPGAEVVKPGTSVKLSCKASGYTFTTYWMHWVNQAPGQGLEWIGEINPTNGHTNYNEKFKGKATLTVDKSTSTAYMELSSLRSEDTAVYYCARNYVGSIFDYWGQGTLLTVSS VL: DIVMTQSPDSMAMSVGERVTLNCKASENVVSYVSWYQQKPGQSPKLLIYGASNRNTGVPDRFSGSGSATDFTLTISSVQAEDVADYHCGQSYNYPYTFGQGTKLEIKR
3. HE2B8-3 (antibody, human IgG1, kappa, V domains shown) VH: QVQLVQPGAEVKKPGTSVKLSCKASGYTFTTYWMHWVRQAPGQGLEWIGEINPTNGHTNYNQKFQGRATLTVDKSTSTAYMELSSLRSEDTAVYYCARNYVGSIFDYWGQGTLLTVSS VL: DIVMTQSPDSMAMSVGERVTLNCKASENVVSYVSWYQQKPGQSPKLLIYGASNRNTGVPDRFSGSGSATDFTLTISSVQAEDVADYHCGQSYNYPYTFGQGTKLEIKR
4. HE2B8-4 (antibody, human IgG1, kappa, V domains shown) VH: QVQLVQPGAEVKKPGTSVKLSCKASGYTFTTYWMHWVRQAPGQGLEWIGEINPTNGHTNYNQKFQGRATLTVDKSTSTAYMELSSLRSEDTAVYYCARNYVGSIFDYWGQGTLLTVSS VL: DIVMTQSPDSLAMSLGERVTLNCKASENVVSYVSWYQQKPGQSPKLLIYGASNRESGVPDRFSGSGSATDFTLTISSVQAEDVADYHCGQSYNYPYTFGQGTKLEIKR

[out]
1: 0.88; 2: 0.8; 3: 0.79; 4: 0.75
